meta.source: patent US7364741B1

Molecular target: HLA-A2.1 (Homo sapiens, UniProt P04439, D140Y/D185E/D98H/E176V/E277Q/G131W/G231S/I119V/I121R/I166T/I218V/L300P/L318F/N151K/N90K/P208A/P217A/Q86G/Q94H/R138H/R169H/T345S)
Construct: endogenous in cells; host or cells: 174CEM.T2
Assay type: cell-based
Conditions: HPV16 peptides; 200 μg/ml peptide, 16 hours, 174CEM.T2 cells
Catalogue of MF (mean HLA-A2.1 fluorescence) readings, one per entry.

| CONSTRUCT SEQUENCE | MF (mean HLA-A2.1 fluorescence) |
| --- | --- |
| IHDIILECV [HPV16 peptide 7, residues 30-38 of HPV16 protein E6] | 150.7 |
| TIHDIILEC [HPV16 peptide 6, residues 29-37 of HPV16 protein E6] | 184.5 |
| PLCDLLIRC [HPV16 peptide 10, residues 102-110 of HPV16 protein E6] | 204.8 |

Now turn to the next sequence.
Sample KISEYRHYC [HPV16 peptide 9, residues 79-87 of HPV16 protein E6] — what was its MF (mean HLA-A2.1 fluorescence)?
211.7
